Listing: koff of selected binders
biological target: DN-IV quality control recombinant protein (produced by the company) (dengue virus); test: BLI, antibody on AMC sensor
Just the number please, in s⁻¹, no unit attached.

- BINDER: "Mutation 1-37 (antibody, V domains shown) VH: EVQLQQPGPELVKPGASVKMSCKASGYTFTSSVIHWVRQKPGQGLEWIGYMNPYNDGIKYNEKFIGKAILTSDKSSSTAYMQLSSLTSEDSAVYYCTREGLFYVFDYWGQGTSVTVSS VL: QIVLTQSPAIMSASPGEKVTMTCSATSSVSYMHWYQQKSGTSPKRWIYDTSKLASGVPVRFSGSGSGTSYSLTISSMEAEDAATYFCQYWRSDLPTFGAGTKLELKR"
  koff [s⁻¹]: 0.000145
- BINDER: "Mutation 1-17 (antibody, V domains shown) VH: EVQLQQPGPELVKPGASVKMSCKASGYTFTSYVIHWVRQKPGQGLEWIGYMNPYNDGIKYNEKFIGKAILTSDKSSSTAYMQLSSLTSEDSAVYYCTKEGLFYVMDYWGQGTSVTVSS VL: QIVLTQSPAIMSASPGEKVTMTCSATSSVSYMHWYQQKSGTSPKRWIYDSSKLASGVPVRFSGSGSGTSYSLTISSMEAEDAATYFCQWWRSDLPTFGAGTKLELKR"
  koff [s⁻¹]: 0.000114

q: For Mutation 1-11 (antibody, V domains shown) VH: EVQLQQPGPELVKPGASVKMSCKASGYTFTSYVIHWVRQKPGQGLEWIGYMNPYNDGLKYNEKFIGKAILTSDKSSSTAYMQLSSLTSEDSAVYYCTKEGLFYVFDYWGQGTSVTVSS VL: QIVLTQSPAIMSASPGEKVTMTCSATSSVSYMHWYQQKSGTSPKRWIYDSSKLASGVPVRFSGSGSGTSYSLTISSMEAEDAATYFCQQWRSDLPTFGAGTKLELKR , what is its reported koff?
a: 0.0003
